Origin of the recorded values: ChEMBL document CHEMBL4177542

# MEASUREMENT_PROTOCOL: Efflux ratio of apparent permeability in human Caco2 cells
# Format: ADME, cell-based
# ASSAY_CONTEXT: Caco-2

MOLECULE	efflux ratio
C=C[C@]1(C)C[C@@H](OC(=O)CSC(C)(C)CNC(=O)[C@H](N)C(C)C)[C@]2(C)[C@H](C)CC[C@]3(CC[C@@H](O)[C@H]32)[C@@H](C)[C@@H]1O	5

====

# MEASUREMENT_PROTOCOL: Safety index, ratio of compound IC50 to valnemulin IC50 for African green monkey Vero cells
# Format: ADME, cell-based
# ASSAY_CONTEXT: chlorocebus sabaeus, read-out: Ratio IC50
PROPERTY_LABEL: selectivity ratio

MOLECULE	PROPERTY_LABEL	EXPERIMENTAL_VALUE
C=C[C@]1(C)C[C@@H](OC(=O)CSC(C)(C)CNC(=O)[C@H](N)C(C)C)[C@]2(C)[C@H](C)CC[C@]3(CC[C@@H](O)[C@H]32)[C@@H](C)[C@@H]1O	selectivity ratio	2.85
